# assayName: Multiple-dose safety and PK study 25 mg BID and 50 mg BID for 10 days
# Assay type: in vivo, human
# runConditions: male, human, in vivo, 25 mg, 25 mg BID; Day 1; healthy male subjects; mean (SD)
readoutType: half-life (h)
One number for each entry, in h.

Prompt line: Item `Clc1ccc([C@]23CNC[C@H]2C3)cc1Cl` : provide half-life
Response line: 3.27

###

# assayName: 13-week dog toxicity and toxicokinetic study
# Format: in vivo
# runConditions: female, beagle, dog, in vivo, po, 20 mg/kg/day, females, 20 mg/kg/day, Day 0
readoutType: Tmax (h)
One number for each entry, in h.

Prompt line: Please look at this compound and report its Tmax: `Clc1ccc([C@]23CNC[C@H]2C3)cc1Cl`
Response line: 2

###

# assayName: in vivo
# runConditions: female, Crl:CD-1(ICR) BR, mouse, po, 100 mg/kg/day, Tmax
readoutType: Tmax (h)
Numbers only, in h.

Prompt line: Tell me Tmax reported for Clc1ccc([C@]23CNC[C@H]2C3)cc1Cl [amitifadine]
Response line: 2

###

# assayName: 13-week dog toxicity and toxicokinetic study
# Format: in vivo
# runConditions: male, beagle, dog, in vivo, po, 2 mg/kg/day, males, 2 mg/kg/day, Day 86
readoutType: Tmax (h)
One number for each entry, in h.

Prompt line: Tell me Tmax reported for `Clc1ccc([C@]23CNC[C@H]2C3)cc1Cl`
Response line: 1

###

# assayName: in vitro
# Format: in vitro ADME
# runConditions: human, Caco-2, pH 7.4
readoutType: recovery at 2 h, 10 μM (%)
Numbers only, in %.

Prompt line: Give the reported recovery at 2 h, 10 μM for this molecule. `Clc1ccc([C@]23CNC[C@H]2C3)cc1Cl`
Response line: 62

###

# assayName: Single rising oral dose (10-150 mg IR) safety, tolerance and pharmacokinetics in healthy male volunteers
# Type: in vivo, human
# runConditions: male, human, plasma, oral, 10 to 150 mg; read-out: elimination half-life
readoutType: half-life

Prompt line: Please give measured half-life of the following entry: `Clc1ccc([C@]23CNC[C@H]2C3)cc1Cl`
Response line: 3 to 4 h

###

# assayName: 2-week rat toxicology and toxicokinetic study
# Format: in vivo
# runConditions: male, Crl:CD (SD)IGS BR, rat, in vivo, po, 40 mg/kg/day, males, 40 mg/kg/day, Day 13
readoutType: Tmax
Note: a bare number is incomplete; add the unit.

Prompt line: Return reported Tmax. Input compound: `Clc1ccc([C@]23CNC[C@H]2C3)cc1Cl`
Response line: 1 h

###

# assayName: 2-week dog toxicity and toxicokinetic study
# Format: in vivo
# runConditions: male, beagle, in vivo, po, 5 mg/kg/day, males, 5 mg/kg/day, Day 13
readoutType: Cmax (ng/mL)
Answers are plain numbers, in ng/mL.

Prompt line: For the molecule `Clc1ccc([C@]23CNC[C@H]2C3)cc1Cl` , give its reported Cmax.
Response line: 1840

###

# assayName: 13-week rat toxicity and toxicokinetic study
# Assay type: in vivo
# runConditions: female, Crl:CD(SD)IGS BR, rat, in vivo, po, 25 mg/kg/day, females, 25 mg/kg/day, Day 87
readoutType: Tmax (h)
Give bare numbers, in h.

Prompt line: Return Tmax for the following compound: `Clc1ccc([C@]23CNC[C@H]2C3)cc1Cl`
Response line: 2
